Target: T1, IFN-αG (human, UniProt P01569 24-189)
T1 construct: Recombinant, HEK293; also called IFN-α5
Test: ProteOn SPR, cell supernatant;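 also: each binding measurement used just a single antigen concentration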
pKd: −log10 of the molar value.
Measurement Name: pKd

[[record]]
binder = "IFWM3410 (antibody, IgG1, V domains shown, mAb; IgG1/kappa said of the parent and of selected mAbs; also called IFWB3145) VH: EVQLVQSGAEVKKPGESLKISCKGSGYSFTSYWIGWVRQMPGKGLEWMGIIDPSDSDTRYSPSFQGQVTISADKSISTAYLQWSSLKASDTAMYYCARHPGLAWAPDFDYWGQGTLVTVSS VL: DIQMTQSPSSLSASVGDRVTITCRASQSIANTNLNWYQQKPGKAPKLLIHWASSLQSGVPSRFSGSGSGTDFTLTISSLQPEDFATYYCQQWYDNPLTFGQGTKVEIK"
measurement_name = "pKd"
assay_value = 10.28

[[record]]
binder = "IFWM3397 (antibody, IgG1, V domains shown, mAb; IgG1/kappa said of the parent and of selected mAbs; also called IFWB3132) VH: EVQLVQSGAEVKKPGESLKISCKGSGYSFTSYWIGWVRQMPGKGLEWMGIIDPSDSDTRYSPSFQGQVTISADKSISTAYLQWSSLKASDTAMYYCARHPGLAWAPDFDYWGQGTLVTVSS VL: DIQMTQSPSSLSASVGDRVTITCRASQSITGFLNWYQQKPGKAPKLLIYAASSLQSGVPSRFSGSGSGTDFTLTISSLQPEDFATYYCQQSHDFPLTFGQGTKVEIK"
measurement_name = "pKd"
assay_value = 10.37

[[record]]
binder = "IFWM3293 (antibody, IgG1, V domains shown, mAb; IgG1/kappa said of the parent and of selected mAbs; also called IFWB3028) VH: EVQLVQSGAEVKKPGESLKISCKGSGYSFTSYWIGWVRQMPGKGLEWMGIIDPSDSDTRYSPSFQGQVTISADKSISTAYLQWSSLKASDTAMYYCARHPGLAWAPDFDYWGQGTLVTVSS VL: DIQMTQSPSSLSASVGDRVTITCRASQSIDEFLNWYQQKPGKAPKLLIYFASSLQSGVPSRFSGSGSGTDFTLTISSLQPEDFATYYCQQAHSFPLTFGQGTKVEIK"
measurement_name = "pKd"
assay_value = 10.43

[[record]]
binder = "IFWM3370 (antibody, IgG1, V domains shown, mAb; IgG1/kappa said of the parent and of selected mAbs; also called IFWB3105) VH: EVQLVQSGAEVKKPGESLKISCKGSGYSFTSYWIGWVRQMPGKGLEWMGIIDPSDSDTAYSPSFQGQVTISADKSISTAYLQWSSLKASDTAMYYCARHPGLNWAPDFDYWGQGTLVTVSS VL: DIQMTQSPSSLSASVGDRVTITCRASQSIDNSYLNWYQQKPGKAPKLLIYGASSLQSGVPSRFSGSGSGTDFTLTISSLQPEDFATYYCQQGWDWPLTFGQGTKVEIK"
measurement_name = "pKd"
assay_value = 10.68

[[record]]
binder = "IFWM3396 (antibody, IgG1, V domains shown, mAb; IgG1/kappa said of the parent and of selected mAbs; also called IFWB3131) VH: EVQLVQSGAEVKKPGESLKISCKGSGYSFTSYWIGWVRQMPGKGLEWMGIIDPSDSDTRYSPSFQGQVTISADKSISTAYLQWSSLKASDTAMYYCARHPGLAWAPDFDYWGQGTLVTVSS VL: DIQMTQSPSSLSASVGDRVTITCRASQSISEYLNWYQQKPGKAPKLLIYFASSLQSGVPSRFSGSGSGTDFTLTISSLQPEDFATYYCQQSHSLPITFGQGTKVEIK"
measurement_name = "pKd"
assay_value = 10.21

